These data points were gathered from patent US20090130165A1.

# STUDY_TARGET: Recombinant human MIF protein (Homo sapiens, UniProt P14174)
# Sequence (P14174 2-115 limits assumed): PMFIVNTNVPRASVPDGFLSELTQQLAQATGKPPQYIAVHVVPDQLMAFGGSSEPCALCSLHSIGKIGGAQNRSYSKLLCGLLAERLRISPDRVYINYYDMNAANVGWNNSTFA
# ASSAY_NOTES: Inhibition of MIF tautisomerase activity (L-dopachrome)
# Format: biochemical
# CONDITION_LABEL: 100 uM compound, mean±standard deviation of 2-4 experiments
MEASUREMENT_KIND: inhibition at 100 µM (%)

Examples with answers:
QUERY_SMILES: Cn1c(=O)n(C)c2cc(C(=O)CSCCC(=O)O)ccc21
MEASUREMENT_KIND: inhibition at 100 µM
MEASURED_RESULT: 3
--
QUERY_SMILES: Cn1c(=O)n(C)c2cc(C(=O)CSCCC(=O)O)c(Cl)cc21
MEASUREMENT_KIND: inhibition at 100 µM
MEASURED_RESULT: 27
--
QUERY_SMILES: O=C(O)CCSCC(=O)c1cc2[nH]c(=O)[nH]c2cc1Cl
MEASUREMENT_KIND: inhibition at 100 µM
MEASURED_RESULT: 4
--
QUERY_SMILES: CCCCSCC(=O)c1ccc2c(c1)n(C)c(=O)n2C
MEASUREMENT_KIND: inhibition at 100 µM
MEASURED_RESULT: 34
--
QUERY_SMILES: CCCCSCC(=O)c1cc2c(cc1Cl)n(C)c(=O)n2C
MEASUREMENT_KIND: inhibition at 100 µM
MEASURED_RESULT: 44

a = CCCCSCC(=O)c1ccc2[nH]c(=O)[nH]c2c1
b = CCCCSCC(=O)c1ccc2[nH]c(=O)sc2c1
## Task Compare inhibition at 100 µM: is it lower for a or for b ? Kindly state the label of the option you pick.
## Result a
(a: 4%, b: 17%)

1 = CCCCSCC(=O)c1cc2sc(=O)n(C)c2cc1Cl
2 = O=C(O)CCSCC(=O)c1cc2sc(=O)[nH]c2cc1Cl
## Task Compare inhibition at 100 µM: is it lower for 1 or for 2 ? Kindly state the label of the option you pick.
## Result 1

----------
# STUDY_TARGET: immobilized recombinant MIF protein (Homo sapiens, UniProt P14174)
# ASSAY_NOTES: Interaction of compounds with MIF protein by Surface Plasmon Resonance (Biacore S51)
# Type: binding
# CONDITION_LABEL: SPR, immobilized MIF, kinetics evaluation; read-out: Kinetics Method Kd
pKd: −log10 of the molar value.
MEASUREMENT_KIND: pKd

QUERY_SMILES: CCCCSCC(=O)c1ccc2[nH]c(=O)sc2c1
MEASUREMENT_KIND: pKd
MEASURED_RESULT: 5.44
//
QUERY_SMILES: O=C(O)CCSCC(=O)c1cc2c(cc1Cl)NC(=O)C2
MEASUREMENT_KIND: pKd
MEASURED_RESULT: 5.60

----------
inhibition at 50 µM reference
# Tested on: LPS-induced IL-6 production in RAW264.7 mouse macrophage cell line
# ASSAY_NOTES: Inhibition of LPS-induced production of IL-6 in RAW264.7 macrophages
# Format: cell-based
# CONDITION_LABEL: 50 uM compound, 100 ng/ml LPS 4 hr, RAW264.7 cells, relative to LPS+DMSO control
Use % as the unit, but write only the number.

Examples with answers:
MOLECULE: O=C(O)CSCC(=O)c1ccc2[nH]c(=O)oc2c1 [Compound 17]
MEASURED_RESULT: 8
//
MOLECULE: CCCCSCC(=O)c1ccc2[nH]c(=O)sc2c1 [Compound 19]
MEASURED_RESULT: 82
//
MOLECULE: O=C1Cc2cc(C(=O)CSCCCCCCO)c(Cl)cc2N1 [Compound 11]
MEASURED_RESULT: 48

Now turn to the next molecule.
## Task Could you share what inhibition at 50 µM was measured for O=C(CSCCCCCCO)c1ccc2[nH]c(=O)oc2c1 [Compound 15] , tested on LPS-induced IL-6 production in RAW264.7 mouse macrophage cell line?
## Result 42
